System: CCRF-CEM leukemia
Experiment Notes: NCI tumour cell line growth inhibition, 48 h
# reported TGI; entries follow

Illustrative cases are given below, each with its answer.
CCC1(O)C(=O)OCc2c1cc1n(c2=O)Cc2c-1nc1ccccc1c2OC (stereo not drawn); < 0.01 µM
C=C1CCCC(C)(C)[C@@H]1CC/C(C)=C/Cn1c2cccc(=O)c-2nc2ccccc21; 13 µM
CC(=O)OCC1OC(O[C@@H]2C[C@H]3C(C)(C)[C@H](OC(C)=O)CC[C@]3(C)[C@H]3CC[C@@]45C[C@H](O)C[C@H](C)[C@@H]4CC=C5[C@@]32C)C(O)C(O)C1O (stereo partly drawn); 13.6 µM
CCOC(=O)NC(=O)c1cn(CCCCCCCCCCC(=O)N2CCN(CCn3cc(C(=O)NC(=O)OCC)c(=O)[nH]c3=O)CC2)c(=O)[nH]c1=O; > 100 µM
O=C(O)c1cnccc1-c1cc(=O)[nH]n1-c1ccccc1; > 100 µM

Please give the measured TGI for this compound: C[C@H]1O[C@@H](O[C@H]2[C@@H](O)C[C@H](O[C@H]3[C@@H](O)C[C@H](O[C@H]4CC[C@]5(C)C6C[C@@H](O)[C@]7(C)[C@@H](C8=CC(=O)OC8)CC[C@]7(O)C6CC[C@@H]5C4)O[C@@H]3C)O[C@@H]2C)C[C@H](O)[C@@H]1O (stereo partly drawn)
0.153 µM

Likewise for O=C1OCC2=C1C(c1ccccc1)c1cc3c(cc1N2CCO)CCC3 (stereo not drawn) ?
> 25 µM

Likewise for COc1c(Nc2ncc(Cl)c(N[C@@H]3[C@H]4C=CC(C4)[C@@H]3C(N)=O)n2)ccc2c1CC[C@@H](N1CCOCC1)CC2 ?
39.2 µM

Likewise for O=c1oc2c(ccc3occc32)c(N2CCCCC2)c1-c1ccccc1 ?
> 59.5 µM

Likewise for COc1cc(O)c2c(=O)c3ccccc3n(C)c2c1 ?
> 100 µM

Likewise for COc1ccc(Cc2nc3cc(Cl)ccc3o2)cc1 ?
> 100 µM

Likewise for O=C(O[C@H]1CN[C@H](C#Cc2cc3ncnc(Nc4ccc(Cc5ccccc5)cc4)c3s2)C1)N1CCOCC1 ?
> 25 µM

Likewise for COc1cccc2c3cccc(OC)c3c3[nH]cnc3c12 ?
3.4 µM

Likewise for Cc1cc2c(cc1Cl)SC(NN(C)C)=NS2(=O)=O ?
> 10 µM

Likewise for CCOc1ccc(/C=N/Nc2cc(C)nc3ccc(Cl)cc23)cc1 ?
3.76 µM

Likewise for CSc1nc(C)cc(N(C)c2ccccc2)n1 ?
> 100 µM

Likewise for CC(=O)O[C@@]12[C@@H]3O[C@@]4(O)C[C@]5(C)[C@H]6C[C@@](C(C)C)(O[C@H]5c5ccoc5)O[C@H]1[C@]6(C4)O[C@]2(O)C(C)=CC3(C)C ?
> 100 µM

Likewise for Clc1ccc(NCc2nnc(COc3ccc(OCc4nnc(CNc5ccc(Cl)cc5)o4)c(Cl)c3)o2)cc1 ?
44.8 µM

Likewise for CCOC(=O)CC(=O)N(c1ccc(OC)cc1)C(C(=O)OC)c1ccccc1 (stereo not drawn) ?
> 100 µM

Likewise for CCCCN(CCCC)c1cc(C(=O)CCCCCN)c2ccccc2n1 ?
7.32 µM

Likewise for Cc1ccc2c(=O)c(-c3nnsn3)c[nH]c2n1 ?
> 100 µM

Likewise for Fc1ccc(C2(CCCN3CCc4[nH]c5cc(F)ccc5c4C3)OCCO2)cc1 ?
31.4 µM

Likewise for C/C(=C\CNc1ncnc2nc(Cl)[nH]c12)CO ?
> 100 µM

Likewise for CCC(C#N)N(Cc1ccc(CN(C(=O)c2ccccc2)C(C#N)CC)cc1)C(=O)c1ccccc1 (stereo not drawn) ?
51.1 µM

Likewise for N#CC(NC12CC3CC(CC(C3)C1)C2)c1ccccc1 (stereo not drawn) ?
> 100 µM

Likewise for [Ce+3].[Cl-].[O-]/N=C(\c1ccccc1)c1ccccn1.[O-]/N=C(\c1ccccc1)c1ccccn1.[O-]/N=C(\c1ccccc1)c1ccccn1 ?
> 100 µM

Likewise for O=C(CN1CCOCC1)c1ccc2[nH]c(=O)oc2c1 ?
> 100 µM

Likewise for O=C1OCC2=C1C(c1cccc([N+](=O)[O-])c1)c1cc3c(cc1N2CCO)CCC3 (stereo not drawn) ?
> 50 µM

The reported measurements were obtained from PubChem BioAssay (NCI).
